Test system: HepG2
ASSAY NAME: cytotoxicity call (relative viability < 0.9)
CONDITION INFO: 10 µM
About 3,300 (8.5%) of roughly 39,000 compounds were called active. The list comes from a sample in which actives are over-represented; it also holds close analogues and randomly drawn compounds.
ENDPOINT LABEL: cytotoxicity call

Req: cytotoxicity call lookup needed for C[C@@H]1CN([C@H](C)CO)C(=O)c2cccc(NS(=O)(=O)c3ccc(F)cc3)c2O[C@H]1CN(C)S(=O)(=O)c1ccccc1 , thanks.
Resp: inactive

Req: If you can, please state the reported cytotoxicity call value of Fc1ccc(-c2nc3ccc4ccccc4c3c3c2CCC3)cc1 .
Resp: inactive

Req: State the recorded cytotoxicity call for this entry: O=C(O)Cn1nnc(-c2ccccc2)n1
Resp: inactive

Req: cytotoxicity call lookup needed for C[C@@H]1CN([C@@H](C)CO)C(=O)Cc2cc(NC(=O)Nc3ccc(C(F)(F)F)cc3)ccc2O[C@@H]1CN(C)S(=O)(=O)c1ccc(Cl)cc1 , thanks.
Resp: active

Req: Record request: cytotoxicity call value, item C[C@H]1CCCCO[C@@H](CN(C)C(=O)Nc2ccc(C(F)(F)F)cc2)[C@@H](C)CN([C@@H](C)CO)C(=O)c2cc(NS(=O)(=O)c3ccccc3)ccc2O1
Resp: active

More entries:
Req: Suppose we examine the compound COc1ccc(CN2C[C@@H](C)[C@H](OC)CN(C)C(=O)c3cc(NC(=O)c4nc5ccccc5s4)ccc3OC[C@@H]2C)cc1 ; what cytotoxicity call value has been reported?
Resp: active

Req: Consider the compound Cc1noc(C)c1S(=O)(=O)Nc1ccc2c(c1)C(=O)N([C@H](C)CO)C[C@@H](C)[C@@H](CN(C)Cc1ccc(-c3ccccc3)cc1)O2 and give its measured cytotoxicity call.
Resp: inactive

Req: I would be grateful if you could share the reported cytotoxicity call for CC(C)NC(=O)N(C)C[C@H]1Oc2c(NC(=O)NC3CCCCC3)cccc2C(=O)N([C@H](C)CO)C[C@H]1C .
Resp: inactive

Req: Name the reported cytotoxicity call value associated with the compound C[C@@H]1CCCCO[C@@H](CN(C)C(=O)Nc2ccc(C(F)(F)F)cc2)[C@H](C)CN([C@@H](C)CO)C(=O)c2cc(NS(=O)(=O)c3ccccc3)ccc2O1
Resp: inactive

Req: What does the data say about its cytotoxicity call? Entry: C[C@@H]1CCCCO[C@@H](CN(C)C(=O)Nc2ccc(C(F)(F)F)cc2)[C@H](C)CN([C@H](C)CO)C(=O)c2cc(NS(=O)(=O)c3ccccc3)ccc2O1
Resp: active

Req: Given the entry C[C@@H]1CN([C@@H](C)CO)C(=O)c2cc(NS(=O)(=O)c3ccccc3)ccc2O[C@@H](C)CCCCO[C@H]1CN(C)C(=O)Nc1ccc(C(F)(F)F)cc1 , report its measured cytotoxicity call.
Resp: inactive
